System: Mycobacterium tuberculosis
Assay: Selectivity ratio of MIC for antibacterial activity against non-replicating Mycobacterium tuberculosis H37Rv harboring pFCA-luxAB to MIC100 for antibacterial activity against replicating Mycobacterium tuberculosis H37Rv
Type: functional
Property Name: selectivity ratio
Give a plain numeric answer without units written out.

Here's what some known entries look like.
CC[C@]1(C)C[C@@H](OC(=O)CSC(C)(C)CNC(=O)[C@H](N)CC(C)C)[C@]2(C)[C@H](C)CC[C@]3(CC[C@@H](O)[C@H]32)[C@@H](C)[C@@H]1O
1.45
CC(=O)NC[C@H]1CN(c2ccc(N3CCOCC3)c(F)c2)C(=O)O1
1.05
C=C[C@]1(C)C[C@@H](OC(=O)CSC(C)(C)CNC(=O)[C@H](N)CC(C)C)[C@]2(C)[C@H](C)CC[C@]3(CC[C@@H](O)[C@H]32)[C@@H](C)[C@@H]1O
1.13

Incoming: Which selectivity ratio is listed for `C=C[C@]1(C)C[C@@H](OC(=O)CSC(C)(C)CNC(=O)[C@H](N)CC(C)C)[C@]2(C)[C@H](C)CC[C@]3(CCC(=O)[C@H]32)[C@@H](C)[C@@H]1O` ?
Outgoing: 1.27

Incoming: State the recorded selectivity ratio for this entry: `CC[C@]1(C)C[C@@H](OC(=O)CSC(C)(C)CNC(=O)[C@H](N)CC(C)C)[C@]2(C)[C@H](C)CC[C@]3(CCC(=O)[C@H]32)[C@@H](C)[C@@H]1O`
Outgoing: 1.33

Incoming: Requested field: selectivity ratio. Item: `C=C[C@]1(C)C[C@@H](OC(=O)CSC(C)(C)CNC(=O)[C@H](N)C(C)C)[C@]2(C)[C@H](C)CC[C@]3(CCC(=O)[C@H]32)[C@@H](C)[C@@H]1O`
Outgoing: 1.14
